test system: ATP; assay: switch fluorescence ratio, 500 uM ATP over buffer (Cy3 cluster intensity, sum of 5 cycles each) (fold (ratio)); higher = stronger signal-on switching upon ATP binding; sequences stand for … in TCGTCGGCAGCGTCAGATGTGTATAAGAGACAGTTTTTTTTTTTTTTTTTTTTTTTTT…TC; settings: aptamer strand: ATP DNA aptamer (quencher-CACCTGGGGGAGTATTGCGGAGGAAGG + anchor), 100 nM annealed; ATP concentration: 500 uM;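 further: ATP exposure 15 min at 22 °C before imaging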
Listed here: items and their measured switch fluorescence ratio.
Please reply with the value in numeric form only.

GTCCAAATGG; 0.999
ATGGGGAGAG; 1.02
CGGGTGCCAT; 0.994
TTACTTGACT; 1.12
AAGCTGGTG; 1.09
TAGGGGGTAG; 1.01
GGCCTTATTG; 1
GACGGTAGAG; 1.03
TGGGTGACGA; 1.01
GGTTTTTGTG; 1.01

Exercise: Name the recorded switch fluorescence ratio for "GAAAGCCTTT" .
Solution: 1

====

Listed here: items and their measured switch fluorescence ratio.
tested on: ATP; assay: switch fluorescence ratio, 500 uM ATP over buffer (Cy3 cluster intensity, sum of 5 cycles each) (fold (ratio)); higher = stronger signal-on switching upon ATP binding; sequences stand for … in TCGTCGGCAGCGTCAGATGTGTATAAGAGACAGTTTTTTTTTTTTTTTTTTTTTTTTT…TC; conditions: aptamer strand: ATP DNA aptamer (quencher-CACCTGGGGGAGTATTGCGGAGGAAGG + anchor), 100 nM annealed; ATP concentration: 500 uM;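 further: ATP exposure 15 min at 22 °C before imaging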
Please reply with the value in numeric form only.

CGGACTATAT; 1.07
AAACTGGAT; 1.01
ACTGCCCGGC; 1.1

Exercise: Name the recorded switch fluorescence ratio for "AAGGGAGAAA" .
Solution: 0.984

Exercise: Input "AGGGAGAAGT"
Solution: 0.985

Exercise: Input "GGTACTGAGC"
Solution: 1.03

Exercise: Input "CTAGGGGGTA"
Solution: 0.971

Exercise: Input "ACTTTGTTCT"
Solution: 1

====

system: ATP; assay: switch fluorescence ratio, 500 uM ATP over buffer (Cy3 cluster intensity, sum of 5 cycles each) (fold (ratio)); higher = stronger signal-on switching upon ATP binding; sequences stand for … in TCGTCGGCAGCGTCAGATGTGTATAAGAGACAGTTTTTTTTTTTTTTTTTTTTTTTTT…TC; details: aptamer strand: ATP DNA aptamer (quencher-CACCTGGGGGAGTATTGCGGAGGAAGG + anchor), 100 nM annealed; ATP concentration: 500 uM;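 further: ATP exposure 15 min at 22 °C before imaging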
value.type: switch fluorescence ratio
Please reply with the value in numeric form only.

Some sequences with recorded switch fluorescence ratio:
GATACCTTCG; 2.61
AAGGGCTATA; 1.01
AAGAGGTAAA; 0.972
TGGGACAGGC; 0.965
AGTATTTCGT; 0.987
CGGGTTAGTA; 1.02

Exercise: Name the recorded switch fluorescence ratio for "TATTTTATTA" .
Solution: 1.01

Exercise: Input "GGGGATTGCT"
Solution: 0.986

Exercise: Input "TAGGTGGCTC"
Solution: 1.03

Exercise: Input "AATGGTTTGC"
Solution: 1.13

Exercise: Input "ATATGCGTCG"
Solution: 0.95

====

test system: ATP; assay: switch fluorescence ratio, 500 uM ATP over buffer (Cy3 cluster intensity, sum of 5 cycles each) (fold (ratio)); higher = stronger signal-on switching upon ATP binding; sequences stand for … in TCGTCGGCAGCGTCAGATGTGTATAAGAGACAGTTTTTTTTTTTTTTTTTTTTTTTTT…TC; conditions: aptamer strand: ATP DNA aptamer (quencher-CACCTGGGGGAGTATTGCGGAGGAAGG + anchor), 100 nM annealed; ATP concentration: 500 uM;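 further: ATP exposure 15 min at 22 °C before imaging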
Listed here: items and their measured switch fluorescence ratio.
Please reply with the value in numeric form only.

Some sequences with recorded switch fluorescence ratio:
GGTTGGTTTG; 0.99
GGGAAGTCGT; 0.964

Exercise: Name the recorded switch fluorescence ratio for "GAGTATGGGA" .
Solution: 0.983

Exercise: Input "CGGGGCTCCG"
Solution: 0.967

Recorded values, source the supplement of paper PMC10126150.
